System: Pseudomonas aeruginosa
Experimental details: Antibacterial activity against Pseudomonas aeruginosa after 48 hrs by well diffusion assay
Format: functional
Calls of active or inactive are those of the source. The calls are words filed in the database; no cut-off is given here.
Observation type: MIC99

Examples with their reported MIC99 follow.
1. Cc1c(C2=CC(c3ccc([N+](=O)[O-])cc3)NC(=S)N2)nnn1Cc1ccccc1 (stereo not drawn) :: 20 µg/mL
2. Cc1c(C2=CC(c3ccccc3)NC(=S)N2)nnn1Cc1ccccc1 (stereo not drawn) :: 12 µg/mL
3. Cc1ccccc1C1C=C(c2nnn(Cc3ccccc3)c2C)NC(=S)N1 (stereo not drawn) :: 18 µg/mL
4. Cc1ccc(C2C=C(c3nnn(Cc4ccccc4)c3C)NC(=S)N2)cc1 (stereo not drawn) :: 10 µg/mL
5. COc1ccc(C2C=C(c3nnn(Cc4ccccc4)c3C)NC(=S)N2)cc1 (stereo not drawn) :: 10 µg/mL

# input compound: Cc1c(C2=CC(c3ccc(Br)cc3)NC(=S)N2)nnn1Cc1ccccc1 (stereo not drawn) ; wanted: its MIC99
100 µg/mL

Query Cc1c(C2=CC(c3ccc(Cl)cc3)NC(=S)N2)nnn1Cc1ccccc1 (stereo not drawn) next
9 µg/mL

Next record, please: Cc1c(C2=CC(c3ccccc3Br)NC(=S)N2)nnn1Cc1ccccc1 (stereo not drawn)
inactive

What about Cc1c(C2=CC(c3ccc(Cl)cc3Cl)NC(=S)N2)nnn1Cc1ccccc1 (stereo not drawn) ?
inactive

What about Cc1c(C2=CC(c3cccc(Br)c3)NC(=S)N2)nnn1Cc1ccccc1 (stereo not drawn) ?
24 µg/mL

Also, COc1ccc(C2C=C(c3nnn(Cc4ccccc4)c3C)NC(=S)N2)c(OC)c1 (stereo not drawn) please.
inactive

Now consider Cc1c(C2=CC(c3ccc(F)cc3)NC(=S)N2)nnn1Cc1ccccc1 (stereo not drawn) .
130 µg/mL

Next compound up: CN(C)[C@@H]1C(O)=C(C(N)=O)C(=O)[C@@]2(O)C(O)=C3C(=O)c4c(O)cccc4[C@@](C)(O)[C@H]3C[C@@H]12 [TETRACYCLINE]
10 µg/mL

----------
Test system: Streptococcus pneumoniae
Experimental details: Antibacterial activity against Streptococcus pneumoniae after 48 hrs by well diffusion assay
Format: functional
# label = Criterion met if MIC99 < 20 µg/mL else Criterion not met

Reference set, count: 3
1) Cc1ccccc1C1C=C(c2nnn(Cc3ccccc3)c2C)NC(=S)N1 (stereo not drawn) :: Criterion met
2) COc1ccc(C2C=C(c3nnn(Cc4ccccc4)c3C)NC(=S)N2)cc1 (stereo not drawn) :: Criterion not met
3) Cc1c(C2=CC(c3cccc(Br)c3)NC(=S)N2)nnn1Cc1ccccc1 (stereo not drawn) :: Criterion not met

Check if MIC99 falls below 20 µg/mL for Cc1c(C2=CC(c3ccccc3Br)NC(=S)N2)nnn1Cc1ccccc1 (stereo not drawn) .
Criterion not met

Moving on to Cc1c(C2=CC(c3ccc(Cl)cc3)NC(=S)N2)nnn1Cc1ccccc1 (stereo not drawn)
Criterion met

Further, for Cc1c(C2=CC(c3ccc(Br)cc3)NC(=S)N2)nnn1Cc1ccccc1 (stereo not drawn) ?
Criterion not met

How about this compound: Cc1c(C2=CC(c3ccc(Cl)cc3Cl)NC(=S)N2)nnn1Cc1ccccc1 (stereo not drawn)
Criterion not met

----------
Test system: Streptococcus pneumoniae
Experimental details: Antibacterial activity against Streptococcus pneumoniae after 48 hrs by well diffusion assay
Type: functional
Observation type: MIC99
Answer format reminder: number followed by unit.

Below are worked cases with known answers.
1. CN(C)[C@@H]1C(O)=C(C(N)=O)C(=O)[C@@]2(O)C(O)=C3C(=O)c4c(O)cccc4[C@@](C)(O)[C@H]3C[C@@H]12 :: 20 µg/mL
2. Cc1c(C2=CC(c3ccc([N+](=O)[O-])cc3)NC(=S)N2)nnn1Cc1ccccc1 (stereo unspecified) :: 20 µg/mL
3. COc1ccc(C2C=C(c3nnn(Cc4ccccc4)c3C)NC(=S)N2)c(OC)c1 (stereo unspecified) :: 42 µg/mL
4. Cc1ccc(C2C=C(c3nnn(Cc4ccccc4)c3C)NC(=S)N2)cc1 (stereo unspecified) :: 16 µg/mL

Look up MIC99 with Streptococcus pneumoniae for this compound: Cc1c(C2=CC(c3ccccc3)NC(=S)N2)nnn1Cc1ccccc1 (stereo unspecified)
19 µg/mL

Continue with Cc1c(C2=CC(c3ccc(F)cc3)NC(=S)N2)nnn1Cc1ccccc1 (stereo unspecified)
100 µg/mL
